Assay: Inhibition of IMPDH (unknown origin)
Set-up: species or system Homo sapiens
Non-standard residues stand in square brackets, D forms with d. Residues, ends and D or L forms follow the SMILES beside them. Groups on a side chain read outwards from the residue. *: point of attachment. Phe(4-Br) = N[C@@H](Cc1ccc(Br)cc1)C(=O)O; NEt2 = CCN(CC)*
measured quantity: IC50

CCN(CC)C(=O)[C@H](Cc1ccc(OC)cc1)NC(=O)[C@H](CC(C)C)NC(=O)[C@@H](NC(=O)[C@@H](N)COC(=O)[C@@H]1CCCN1C(C)=O)C(C)C (H-S([Pro-Ac])VLY(Me)-NEt2): > 100 µg/mL

Continue with the next molecule.
Input line: # get_value(readout='IC50', item= CCN(CC)C(=O)[C@H](Cc1ccc(Br)cc1)NC(=O)[C@H](CC(C)C)NC(=O)[C@@H](NC(=O)[C@@H](N)COC(=O)[C@@H]1CCCN1C(C)=O)C(C)C (H-S([Pro-Ac])VL[Phe(4-Br)]-NEt2) )
Output line: > 100 µg/mL

* * *

Non-standard residues stand in square brackets, D forms with d. Residues, ends and D or L forms follow the SMILES beside them. Groups on a side chain read outwards from the residue. *: point of attachment. Phe(4-Cl) = N[C@@H](Cc1ccc(Cl)cc1)C(=O)O; Phe(4-F) = N[C@@H](Cc1ccc(F)cc1)C(=O)O; 2Nal = N[C@@H](Cc1ccc2ccccc2c1)C(=O)O; NEt2 = CCN(CC)*
Observed IC50, system Cathepsin B (Homo sapiens, UniProt P07858).

These solved cases illustrate the format of a correct answer.
CCN(CC)C(=O)[C@H](Cc1ccc(OC)cc1)NC(=O)[C@H](CC(C)C)NC(=O)[C@@H](NC(=O)[C@@H](N)COC(=O)[C@H](CC(C)C)NC(C)=O)C(C)C (H-S([Leu-Ac])VLY(Me)-NEt2): > 142 µM
CCN(CC)C(=O)[C@H](Cc1ccc2ccccc2c1)NC(=O)[C@H](CC(C)C)NC(=O)[C@@H](NC(=O)[C@@H](N)COC(=O)[C@@H]1CCCN1C(C)=O)C(C)C (H-S([Pro-Ac])VL[2Nal]-NEt2): > 141 µM
CCN(CC)C(=O)[C@H](Cc1ccccc1)NC(=O)[C@H](CC(C)C)NC(=O)[C@@H](NC(=O)[C@@H](N)COC(=O)[C@H](CC(C)C)NC(C)=O)C(C)C (H-S([Leu-Ac])VLF-NEt2): > 148 µM
CCN(CC)C(=O)[C@H](Cc1ccc(F)cc1)NC(=O)[C@H](CC(C)C)NC(=O)[C@@H](NC(=O)[C@@H](N)COC(=O)[C@H](CC(C)C)NC(C)=O)C(C)C (H-S([Leu-Ac])VL[Phe(4-F)]-NEt2): > 144 µM
CCN(CC)C(=O)[C@H](Cc1ccccc1)NC(=O)[C@H](CC(C)C)NC(=O)[C@@H](NC(=O)[C@@H](N)COC(=O)[C@@H]1CCCN1C(C)=O)C(C)C (H-S([Pro-Ac])VLF-NEt2): > 152 µM
CCN(CC)C(=O)[C@H](Cc1ccc(Cl)cc1)NC(=O)[C@H](CC(C)C)NC(=O)[C@@H](NC(=O)[C@@H](N)COC(=O)[C@H](CC(C)C)NC(C)=O)C(C)C (H-S([Leu-Ac])VL[Phe(4-Cl)]-NEt2): > 141 µM

Input line: Param readout= IC50; system= Cathepsin B (Homo sapiens, UniProt P07858); entry= CCN(CC)C(=O)[C@H](Cc1ccc2ccccc2c1)NC(=O)[C@H](CC(C)C)NC(=O)[C@@H](NC(=O)[C@@H](N)COC(=O)[C@H](CC(C)C)NC(C)=O)C(C)C (H-S([Leu-Ac])VL[2Nal]-NEt2) ; returns value.
Output line: > 138 µM

* * *

Non-standard residues stand in square brackets, D forms with d. Residues, ends and D or L forms follow the SMILES beside them. Groups on a side chain read outwards from the residue. *: point of attachment. Phe(4-Br) = N[C@@H](Cc1ccc(Br)cc1)C(=O)O; Phe(4-F) = N[C@@H](Cc1ccc(F)cc1)C(=O)O; 2Nal = N[C@@H](Cc1ccc2ccccc2c1)C(=O)O; NEt2 = CCN(CC)*
UniProt Q06124: recorded pIC50 for assorted compounds
Conceptually, pIC50 converts a concentration in mol/L into minus its log10.

Use the examples below as a reference point.
CCN(CC)C(=O)[C@H](Cc1ccccc1)NC(=O)[C@H](CC(C)C)NC(=O)[C@@H](NC(=O)[C@@H](N)COC(=O)[C@H](CC(C)C)NC(C)=O)C(C)C (H-S([Leu-Ac])VLF-NEt2): 4.43
CCN(CC)C(=O)[C@H](Cc1ccc2ccccc2c1)NC(=O)[C@H](CC(C)C)NC(=O)[C@@H](NC(=O)[C@@H](N)COC(=O)[C@@H]1CCCN1C(C)=O)C(C)C (H-S([Pro-Ac])VL[2Nal]-NEt2): 4.90

Input line: Tell me the measured pIC50 of CCN(CC)C(=O)[C@H](Cc1ccc(F)cc1)NC(=O)[C@H](CC(C)C)NC(=O)[C@@H](NC(=O)[C@@H](N)COC(=O)[C@@H]1CCCN1C(C)=O)C(C)C (H-S([Pro-Ac])VL[Phe(4-F)]-NEt2) , please.
Output line: 4.50

Input line: Form field: reported pIC50 of CCN(CC)C(=O)[C@H](Cc1ccc(Br)cc1)NC(=O)[C@H](CC(C)C)NC(=O)[C@@H](NC(=O)[C@@H](N)COC(=O)[C@H](CC(C)C)NC(C)=O)C(C)C (H-S([Leu-Ac])VL[Phe(4-Br)]-NEt2)
Output line: 4.48

* * *

Target: Tyrosine-protein phosphatase non-receptor type 11 (Homo sapiens) (UniProt Q06124)
Sequence (Q06124 whole entry): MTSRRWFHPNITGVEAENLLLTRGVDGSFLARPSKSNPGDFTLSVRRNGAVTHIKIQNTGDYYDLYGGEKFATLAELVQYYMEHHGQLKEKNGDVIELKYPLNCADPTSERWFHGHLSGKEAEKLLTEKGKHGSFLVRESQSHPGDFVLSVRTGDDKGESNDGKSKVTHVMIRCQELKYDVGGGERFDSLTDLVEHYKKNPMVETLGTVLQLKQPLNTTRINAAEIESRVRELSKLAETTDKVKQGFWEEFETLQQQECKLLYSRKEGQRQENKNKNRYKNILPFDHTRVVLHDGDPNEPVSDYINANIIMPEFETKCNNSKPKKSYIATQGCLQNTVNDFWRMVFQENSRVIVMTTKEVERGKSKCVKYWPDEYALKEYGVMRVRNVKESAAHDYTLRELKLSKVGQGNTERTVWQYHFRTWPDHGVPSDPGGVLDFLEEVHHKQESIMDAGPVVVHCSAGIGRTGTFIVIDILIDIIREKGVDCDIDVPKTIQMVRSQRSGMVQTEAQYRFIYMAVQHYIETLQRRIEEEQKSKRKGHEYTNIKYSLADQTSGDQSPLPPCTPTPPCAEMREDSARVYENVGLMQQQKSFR
Experiment: Inhibition of SHP2 (unknown origin) at 10 uM
Non-standard residues stand in square brackets, D forms with d. Residues, ends and D or L forms follow the SMILES beside them. Groups on a side chain read outwards from the residue. *: point of attachment. Phe(4-Br) = N[C@@H](Cc1ccc(Br)cc1)C(=O)O; Phe(4-F) = N[C@@H](Cc1ccc(F)cc1)C(=O)O; 2Nal = N[C@@H](Cc1ccc2ccccc2c1)C(=O)O; NEt2 = CCN(CC)*
Item-by-item account of inhibition
In your response, the unit should come after the numeric value.

Answered cases to consult:
CCN(CC)C(=O)[C@H](Cc1ccc(F)cc1)NC(=O)[C@H](CC(C)C)NC(=O)[C@@H](NC(=O)[C@@H](N)COC(=O)[C@@H]1CCCN1C(C)=O)C(C)C (H-S([Pro-Ac])VL[Phe(4-F)]-NEt2): 23%
CCN(CC)C(=O)[C@H](Cc1ccc(Br)cc1)NC(=O)[C@H](CC(C)C)NC(=O)[C@@H](NC(=O)[C@@H](N)COC(=O)[C@H](CC(C)C)NC(C)=O)C(C)C (H-S([Leu-Ac])VL[Phe(4-Br)]-NEt2): 26%
CCN(CC)C(=O)[C@H](Cc1ccccc1)NC(=O)[C@H](CC(C)C)NC(=O)[C@@H](NC(=O)[C@@H](N)COC(=O)[C@H](CC(C)C)NC(C)=O)C(C)C (H-S([Leu-Ac])VLF-NEt2): 31%

Could you now consider this next compound?
Input line: # value lookup — system Tyrosine-protein phosphatase non-receptor type 11 (Homo sapiens) (UniProt Q06124), readout inhibition, item CCN(CC)C(=O)[C@H](Cc1ccc2ccccc2c1)NC(=O)[C@H](CC(C)C)NC(=O)[C@@H](NC(=O)[C@@H](N)COC(=O)[C@@H]1CCCN1C(C)=O)C(C)C (H-S([Pro-Ac])VL[2Nal]-NEt2)
Output line: 47%

* * *

Biological target: Monoglyceride lipase (Homo sapiens)
Sequence (Q99685 whole entry): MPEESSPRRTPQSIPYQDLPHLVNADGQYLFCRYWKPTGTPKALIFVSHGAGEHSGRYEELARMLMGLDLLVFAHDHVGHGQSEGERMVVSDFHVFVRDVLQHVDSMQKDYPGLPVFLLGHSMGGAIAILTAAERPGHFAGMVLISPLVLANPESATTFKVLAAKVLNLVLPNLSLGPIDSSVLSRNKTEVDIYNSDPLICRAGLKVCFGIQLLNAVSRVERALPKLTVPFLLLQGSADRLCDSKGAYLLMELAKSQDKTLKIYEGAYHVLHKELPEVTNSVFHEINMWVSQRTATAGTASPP
Non-standard residues stand in square brackets, D forms with d. Residues, ends and D or L forms follow the SMILES beside them. Groups on a side chain read outwards from the residue. *: point of attachment. Phe(4-Br) = N[C@@H](Cc1ccc(Br)cc1)C(=O)O; Phe(4-Cl) = N[C@@H](Cc1ccc(Cl)cc1)C(=O)O; Phe(4-F) = N[C@@H](Cc1ccc(F)cc1)C(=O)O; 2Nal = N[C@@H](Cc1ccc2ccccc2c1)C(=O)O; NEt2 = CCN(CC)*
measured quantity: IC50

CCN(CC)C(=O)[C@H](Cc1ccc(OC)cc1)NC(=O)[C@H](CC(C)C)NC(=O)[C@@H](NC(=O)[C@@H](N)COC(=O)[C@@H]1CCCN1C(C)=O)C(C)C (H-S([Pro-Ac])VLY(Me)-NEt2): > 145 µM
CCN(CC)C(=O)[C@H](Cc1ccc(Cl)cc1)NC(=O)[C@H](CC(C)C)NC(=O)[C@@H](NC(=O)[C@@H](N)COC(=O)[C@@H]1CCCN1C(C)=O)C(C)C (H-S([Pro-Ac])VL[Phe(4-Cl)]-NEt2): > 144 µM
CCN(CC)C(=O)[C@H](Cc1ccc(Br)cc1)NC(=O)[C@H](CC(C)C)NC(=O)[C@@H](NC(=O)[C@@H](N)COC(=O)[C@@H]1CCCN1C(C)=O)C(C)C (H-S([Pro-Ac])VL[Phe(4-Br)]-NEt2): > 136 µM
CCN(CC)C(=O)[C@H](Cc1ccc2ccccc2c1)NC(=O)[C@H](CC(C)C)NC(=O)[C@@H](NC(=O)[C@@H](N)COC(=O)[C@@H]1CCCN1C(C)=O)C(C)C (H-S([Pro-Ac])VL[2Nal]-NEt2): > 141 µM
CCN(CC)C(=O)[C@H](Cc1ccc2ccccc2c1)NC(=O)[C@H](CC(C)C)NC(=O)[C@@H](NC(=O)[C@@H](N)COC(=O)[C@H](CC(C)C)NC(C)=O)C(C)C (H-S([Leu-Ac])VL[2Nal]-NEt2): > 138 µM
CCN(CC)C(=O)[C@H](Cc1ccccc1)NC(=O)[C@H](CC(C)C)NC(=O)[C@@H](NC(=O)[C@@H](N)COC(=O)[C@H](CC(C)C)NC(C)=O)C(C)C (H-S([Leu-Ac])VLF-NEt2): > 148 µM

Input line: Fill in the blank: the reported IC50 of CCN(CC)C(=O)[C@H](Cc1ccc(Cl)cc1)NC(=O)[C@H](CC(C)C)NC(=O)[C@@H](NC(=O)[C@@H](N)COC(=O)[C@H](CC(C)C)NC(C)=O)C(C)C (H-S([Leu-Ac])VL[Phe(4-Cl)]-NEt2) is ____.
Output line: > 141 µM

Input line: Which measured IC50 value corresponds to CCN(CC)C(=O)[C@H](Cc1ccc(F)cc1)NC(=O)[C@H](CC(C)C)NC(=O)[C@@H](NC(=O)[C@@H](N)COC(=O)[C@@H]1CCCN1C(C)=O)C(C)C (H-S([Pro-Ac])VL[Phe(4-F)]-NEt2) ?
Output line: > 148 µM

Input line: Please report the recorded IC50 for CCN(CC)C(=O)[C@H](Cc1ccc(Br)cc1)NC(=O)[C@H](CC(C)C)NC(=O)[C@@H](NC(=O)[C@@H](N)COC(=O)[C@H](CC(C)C)NC(C)=O)C(C)C (H-S([Leu-Ac])VL[Phe(4-Br)]-NEt2) .
Output line: > 133 µM
